- Measured target: UniProt:Q9NZC2
- Sequence (Q9NZC2 19-230): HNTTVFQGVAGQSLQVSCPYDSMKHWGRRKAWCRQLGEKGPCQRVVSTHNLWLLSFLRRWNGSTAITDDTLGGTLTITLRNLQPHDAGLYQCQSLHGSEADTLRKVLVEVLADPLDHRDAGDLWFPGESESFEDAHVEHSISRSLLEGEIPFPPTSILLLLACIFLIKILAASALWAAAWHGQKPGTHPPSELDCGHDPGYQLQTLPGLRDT
- Sequence (O43914 22-113 partner): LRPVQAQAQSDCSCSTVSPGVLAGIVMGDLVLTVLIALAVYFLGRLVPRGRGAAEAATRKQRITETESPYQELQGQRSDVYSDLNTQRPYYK
- Experimental details: TREM2 activity by cellular Syk phosphorylation (AlphaScreen/AlphaLISA) in TREM2/DAP12-HEK cells, used for Examples 1-305
- Format: cell-based
- Set-up: expressed in transfected cells
- Applied conditions: HEK293 Cells
- From the text: In vitro Measurement of Triggering Receptor Expressed on Myeloid Cells 2 activity using cellular phosphorylation of Spleen Tyrosine Kinase (“Syk”) Assays used for Examples 1-305 Pharmacological measurements of TREM2 signaling through DAP12 were made with TREM2 and DAP12 overexpressing HEK293 cells stable cell lines that had been single-cell cloned (“TREM2/DAP12-HEK”). […]
Measured attribute: hTREM2 Emax

>>> df
                                    molecule  measured_attribute     recorded_measurement
 0  Cc1nc2nc(N3CCO[C@@H](c4cnn(C)c4)C3)nc(N3CC(C(F)(F)F)C3)c2nc1C         hTREM2 Emax   ++ (Emax>100 and ≤150)
 1  Cc1nc2cc(N3CCO[C@@H](c4cnn(C5CC5)c4)C3)nc([C@H]3C[C@H](C(F)(F)F)C3)c2nc1C         hTREM2 Emax   ++ (Emax>100 and ≤150)
 2  Cc1ccc(-c2nc([C@@H]3CCO[C@H](c4ccnc(C)c4)C3)nc3nc(C)c(C)cc23)c(F)c1 (single isomer, unassigned)         hTREM2 Emax          ++++ (Emax>250)
 3  Cc1ccc2c(-c3ccc(Cl)cc3F)nc([C@@H]3CCO[C@H](c4cnn(C)c4)C3)nc2n1         hTREM2 Emax   ++ (Emax>100 and ≤150)
 4  Cc1ncc([C@@H]2CN(c3nc(-c4ccc(C(F)(F)F)nc4)c4nc(C)c(C)nc4n3)CCO2)cn1         hTREM2 Emax  +++ (Emax>150 and ≤250)
 5  Cc1cc([C@H]2CN(c3nc(-c4ccc(F)cc4F)c4cc(C)c(C)nc4n3)CCO2)ccn1         hTREM2 Emax          ++++ (Emax>250)
 6  Cc1ccc2c(C3CCC(F)(F)CC3)nc(N3CCO[C@@H](c4cnn(C5CC5)c4)C3)nc2n1         hTREM2 Emax  +++ (Emax>150 and ≤250)
 7  Cc1nc2nc(N3CCOC(C4CCOC4)C3)nc(-c3ccc(Cl)cc3F)c2nc1C (centres unmarked)         hTREM2 Emax          ++++ (Emax>250)
 8  Cc1cc([C@H]2C[C@H](c3nc(-c4ccc(F)cc4F)c4cc(C)c(C)nc4n3)CCO2)ccn1 (single isomer, unassigned)         hTREM2 Emax  +++ (Emax>150 and ≤250)
 9  Cc1nc2nc(N3CCO[C@@H](c4cnn(C5CC5)c4)C3)nc([C@H]3C[C@H](C(F)F)C3)c2nc1C         hTREM2 Emax   ++ (Emax>100 and ≤150)
10  Cc1nc2nc([C@@H]3CCO[C@H](c4cnn(C)c4)C3)cc(-c3ccc(Cl)cc3F)c2nc1C         hTREM2 Emax  +++ (Emax>150 and ≤250)
11  Cc1cc([C@H]2CN(c3nc(C4CC5(C4)CC(F)(F)C5)c4nc(C)c(C)nc4n3)CCO2)ccn1         hTREM2 Emax   ++ (Emax>100 and ≤150)
12  Cc1nc2nc(N3CCO[C@@H](c4cnn(C)c4)C3)nc(C3CCC(F)(F)CC3)c2nc1C         hTREM2 Emax  +++ (Emax>150 and ≤250)
13  Cc1nc2nc([C@@H]3CCO[C@@H](c4cnn(C)c4)C3)nc([C@H]3C[C@H](C(F)(F)F)C3)c2nc1C (single isomer, unassigned)         hTREM2 Emax          ++++ (Emax>250)
14  Cc1ncc([C@@H]2CN(c3nc(-c4ccc(Cl)cc4F)c4cc(C)c(C)nc4n3)CCO2)cn1 (single isomer, unassigned)         hTREM2 Emax  +++ (Emax>150 and ≤250)
15  Cc1cc([C@H]2CN(c3nc(-c4ccc(Cl)cc4F)c4cc(C)c(C)nc4n3)CCO2)cnn1 (single isomer, unassigned)         hTREM2 Emax  +++ (Emax>150 and ≤250)
16  Cc1nc2nc(N3CCO[C@@H](c4cnn(C)c4)C3)nc(C3CCC(C)(C)CC3)c2nc1C         hTREM2 Emax     + (Emax>45 and ≤100)
17  Cc1nc2nc(N3CCO[C@H]([C@H]4CCOC4)C3)nc(-c3ccc(F)cc3F)c2nc1C (single isomer, unassigned)         hTREM2 Emax  +++ (Emax>150 and ≤250)
18  CCc1ccc2c(-c3ccc(Cl)cc3F)nc(N3CCO[C@@H](c4cnn(C)c4)C3)cc2n1         hTREM2 Emax     + (Emax>45 and ≤100)
19  Cc1nc2nc(N3CCO[C@H]([C@@H]4CCOC4)C3)nc(-c3ccc(F)cc3F)c2nc1C (single isomer, unassigned) [Example 35]         hTREM2 Emax  +++ (Emax>150 and ≤250)
